Hello, the source for this data is paper PMC5164911, in case you need it.

# test_system: PDIA3 (Homo sapiens)
# Construct: made in house; host or cells: E. coli BL21 (vector pET21)
# Sequence (P30101 25-505): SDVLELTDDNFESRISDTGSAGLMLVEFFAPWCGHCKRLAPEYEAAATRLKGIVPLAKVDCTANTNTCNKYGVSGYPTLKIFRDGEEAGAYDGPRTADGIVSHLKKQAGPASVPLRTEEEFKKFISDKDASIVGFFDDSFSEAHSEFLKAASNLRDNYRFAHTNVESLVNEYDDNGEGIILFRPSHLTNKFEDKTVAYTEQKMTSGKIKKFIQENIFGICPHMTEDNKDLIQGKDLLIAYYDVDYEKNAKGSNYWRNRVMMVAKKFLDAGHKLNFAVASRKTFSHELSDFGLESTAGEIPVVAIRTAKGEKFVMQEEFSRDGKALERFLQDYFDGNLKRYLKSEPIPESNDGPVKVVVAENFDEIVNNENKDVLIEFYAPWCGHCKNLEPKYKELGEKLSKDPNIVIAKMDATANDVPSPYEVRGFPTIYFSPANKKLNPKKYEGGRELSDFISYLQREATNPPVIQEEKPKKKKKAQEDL
# method_description: Disulfide reductase activity with DiE-GSSG fluorogenic probe
# Format: biochemical
# experimental_setup: 20 μM flavonoid (Figure 7), DiE-GSSG substrate
value_type: Inhibition of disulfide reductase (redox) activity (%)
I only need the number, in %, no unit after it.

smi	test_system	measurement_units	numeric_result
O=c1c(O)c(-c2ccc(O)c(O)c2)oc2cc(O)cc(O)c12	PDIA3 (Homo sapiens)	%	18

Moving on to another compound below.
input: GET /values?readout=Inhibition of disulfide reductase (redox) activity&item= COc1ccc(-c2cc(=O)c3c(O)c(OC)c(OC)cc3o2)cc1O
output: 40

====

# test_system: PDIA3 (Homo sapiens)
# Construct: made in house; host or cells: E. coli BL21 (vector pET21)
# method_description: Fluorescence quenching titration of PDIA3 intrinsic fluorescence
# Assay type: binding
# experimental_setup: K d = 1/K b; reduced PDIA3, pH 7.4, 25°C; read-out: dissociation constant (K d)
# Procedure: Quantitative analysis of the interaction between individual flavonoids and PDIA3 was performed by fluorimetric titration. […] Fluorescence spectra of appropriate blanks (flavonoids without proteins) were recorded under the same experimental conditions and subtracted from the corresponding flavonoid-protein system to correct the fluorescence background. […]
value_type: pKd
Please note pKd is a logarithmic value: minus log10 of concentration in mol/L. Answer with that number alone.

Reference set, count: 2
smi	pKd
O=c1c(O[C@@H]2O[C@H](CO)[C@@H](O)[C@H](O)[C@H]2O)c(-c2ccc(O)c(O)c2)oc2cc(O)cc(O)c12	4.46
O=c1c(O)c(-c2ccc(O)cc2)oc2cc(O)cc(O)c12	4.41

input: Query the reported pKd for PDIA3 (Homo sapiens); item: C[C@@H]1O[C@@H](OC[C@H]2O[C@@H](Oc3c(-c4ccc(O)c(O)c4)oc4cc(O)cc(O)c4c3=O)[C@H](O)[C@@H](O)[C@@H]2O)[C@H](O)[C@H](O)[C@H]1O
output: 4.66

====

# test_system: PDIA3 (Homo sapiens, UniProt P30101)
# Construct: made in house; host or cells: E. coli BL21 (vector pET21)
# Sequence (P30101 25-505): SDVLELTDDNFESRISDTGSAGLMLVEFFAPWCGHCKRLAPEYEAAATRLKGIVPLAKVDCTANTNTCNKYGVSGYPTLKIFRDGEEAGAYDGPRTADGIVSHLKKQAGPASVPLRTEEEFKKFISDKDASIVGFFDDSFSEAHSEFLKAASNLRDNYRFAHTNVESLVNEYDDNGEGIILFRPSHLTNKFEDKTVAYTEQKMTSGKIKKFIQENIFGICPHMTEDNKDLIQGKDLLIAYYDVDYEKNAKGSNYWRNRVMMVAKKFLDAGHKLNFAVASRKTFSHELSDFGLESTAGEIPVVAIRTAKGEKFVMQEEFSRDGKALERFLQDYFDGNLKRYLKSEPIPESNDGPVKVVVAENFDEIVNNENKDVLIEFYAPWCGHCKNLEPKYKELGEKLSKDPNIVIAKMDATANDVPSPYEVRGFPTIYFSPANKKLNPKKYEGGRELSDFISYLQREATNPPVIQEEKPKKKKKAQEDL
# method_description: Fluorescence quenching titration of PDIA3 intrinsic fluorescence
# Assay type: binding
# experimental_setup: equation of Bi et al., reiterative calculation of Sun et al.; reduced PDIA3, pH 7.4, 25°C
# Procedure: Quantitative analysis of the interaction between individual flavonoids and PDIA3 was performed by fluorimetric titration. […] Fluorescence spectra of appropriate blanks (flavonoids without proteins) were recorded under the same experimental conditions and subtracted from the corresponding flavonoid-protein system to correct the fluorescence background. […]
# Lookup of reported binding constant (K b) keyed by entry
Field format: number, assumed M⁻¹, no unit text.

Worked set:
smi	measurement_units	numeric_result
O=c1c(O[C@@H]2O[C@H](CO)[C@@H](O)[C@H](O)[C@H]2O)c(-c2ccc(O)c(O)c2)oc2cc(O)cc(O)c12	M⁻¹	29100
COc1ccc(-c2cc(=O)c3c(O)c(OC)c(OC)cc3o2)cc1O	M⁻¹	96700

Let us move to another entry and its binding constant (K b).
input: Which binding constant (K b) is reported for this molecule? O=C1C[C@@H](c2ccc(O)cc2)Oc2cc(O)cc(O)c21
output: 17300

====

# test_system: PDIA3 (Homo sapiens, UniProt P30101)
# Construct: made in house; host or cells: E. coli BL21 (vector pET21)
# method_description: Fluorescence quenching titration of PDIA3 intrinsic fluorescence
# Format: binding
# experimental_setup: 0.5∗10^−6 M PDIA3 in reduced conditions, pH 7.4, 25°C, flavonoid 0 to 10∗10^−6 M; mean and standard deviation
Form field: Stern-Volmer constant (K SV) (one value per entry).
Return type: number; implicit unit M⁻¹.

molecule	test_system	Stern-Volmer constant (K SV) (M⁻¹)
O=c1c(O)c(-c2ccc(O)c(O)c2)oc2cc(O)ccc12	PDIA3 (Homo sapiens, UniProt P30101)	33164
Oc1cc(O)c2cc(O)c(-c3ccc(O)c(O)c3)[o+]c2c1	PDIA3 (Homo sapiens, UniProt P30101)	29761
COc1ccc(-c2cc(=O)c3c(O)c(OC)c(OC)cc3o2)cc1O	PDIA3 (Homo sapiens, UniProt P30101)	89362

input: Entry under review: C[C@@H]1O[C@@H](Oc2c(-c3ccc(O)c(O)c3)oc3cc(O)cc(O)c3c2=O)[C@H](O)[C@H](O)[C@H]1O . Reported Stern-Volmer constant (K SV)?
output: 29211

input: For the molecule shown here, COc1cc(-c2oc3cc(O)cc(O)c3c(=O)c2O)ccc1O , give the reported Stern-Volmer constant (K SV).
output: 36109

====

# test_system: PDIA3 (Homo sapiens)
# Construct: made in house; host or cells: E. coli BL21 (vector pET21)
# Sequence (P30101 25-505): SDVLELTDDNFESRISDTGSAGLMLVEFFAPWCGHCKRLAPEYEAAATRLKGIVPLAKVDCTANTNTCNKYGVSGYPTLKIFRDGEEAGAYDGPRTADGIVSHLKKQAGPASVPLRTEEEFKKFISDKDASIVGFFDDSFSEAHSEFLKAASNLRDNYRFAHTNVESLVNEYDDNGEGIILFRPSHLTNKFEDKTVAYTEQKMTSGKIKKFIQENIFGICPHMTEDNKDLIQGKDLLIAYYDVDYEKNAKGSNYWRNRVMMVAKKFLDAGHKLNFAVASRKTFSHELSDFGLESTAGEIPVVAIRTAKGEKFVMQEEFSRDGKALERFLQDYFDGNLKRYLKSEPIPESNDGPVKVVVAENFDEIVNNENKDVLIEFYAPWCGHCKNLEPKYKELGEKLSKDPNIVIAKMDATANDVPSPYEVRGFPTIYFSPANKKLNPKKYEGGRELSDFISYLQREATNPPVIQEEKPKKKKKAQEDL
# method_description: Disulfide reductase activity with DiE-GSSG fluorogenic probe
# Assay type: biochemical
# experimental_setup: 20 μM flavonoid (Figure 7), DiE-GSSG substrate
value_type: Inhibition of disulfide reductase (redox) activity

smi	result
Oc1cc(O)c2cc(O)c(-c3ccc(O)c(O)c3)[o+]c2c1	approximately 20%
O=c1c(O)c(-c2ccc(O)cc2O)oc2cc(O)cc(O)c12	approximately 20%

====

List of Stern-Volmer constant (K SV) values.
# test_system: PDIA3 (Homo sapiens, UniProt P30101)
# Construct: made in house; host or cells: E. coli BL21 (vector pET21)
# Sequence (P30101 25-505): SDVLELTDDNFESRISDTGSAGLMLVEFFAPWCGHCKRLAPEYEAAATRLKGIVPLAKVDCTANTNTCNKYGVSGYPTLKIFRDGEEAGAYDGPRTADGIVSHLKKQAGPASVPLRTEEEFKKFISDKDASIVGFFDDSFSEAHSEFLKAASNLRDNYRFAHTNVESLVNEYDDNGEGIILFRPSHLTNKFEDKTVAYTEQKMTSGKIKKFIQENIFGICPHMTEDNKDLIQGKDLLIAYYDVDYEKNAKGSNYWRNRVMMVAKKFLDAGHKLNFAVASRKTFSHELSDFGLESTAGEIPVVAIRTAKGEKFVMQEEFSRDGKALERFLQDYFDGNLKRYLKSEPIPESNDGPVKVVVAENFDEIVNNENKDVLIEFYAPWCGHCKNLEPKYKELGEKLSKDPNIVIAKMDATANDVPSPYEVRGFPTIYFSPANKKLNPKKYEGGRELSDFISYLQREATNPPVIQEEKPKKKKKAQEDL
# method_description: Fluorescence quenching titration of PDIA3 intrinsic fluorescence
# Assay type: binding
# experimental_setup: 0.5∗10^−6 M PDIA3 in reduced conditions, pH 7.4, 25°C, flavonoid 0 to 10∗10^−6 M; mean and standard deviation
Answer format: numeric, M⁻¹ implied, no suffix.

molecule	numeric_result
C[C@@H]1O[C@@H](OC[C@H]2O[C@@H](Oc3c(-c4ccc(O)c(O)c4)oc4cc(O)cc(O)c4c3=O)[C@H](O)[C@@H](O)[C@@H]2O)[C@H](O)[C@H](O)[C@H]1O	45197
O=c1c(O[C@@H]2O[C@H](CO)[C@@H](O)[C@H](O)[C@H]2O)c(-c2ccc(O)c(O)c2)oc2cc(O)cc(O)c12	25738
COc1c(-c2ccc(O)c(O)c2)oc2cc(O)cc(O)c2c1=O	41110
O=C1C[C@@H](c2ccc(O)cc2)Oc2cc(O)cc(O)c21	16900
COc1cc(O)c2c(=O)c(O)c(-c3ccc(O)c(O)c3)oc2c1	28462

input: Recorded Stern-Volmer constant (K SV) of O=c1c(O)c(-c2ccc(O)c(O)c2)oc2cc(O)cc(O)c12 , please.
output: 46226

input: Stern-Volmer constant (K SV) for COc1ccc(-c2cc(=O)c3c(OC)c(OC)c(OC)cc3o2)cc1O ?
output: 90016
